Overview of recorded pIC50 for various molecules
# assay system: RON (human) (Homo sapiens, UniProt Q04912)
# Sequence (Q04912 25-1400): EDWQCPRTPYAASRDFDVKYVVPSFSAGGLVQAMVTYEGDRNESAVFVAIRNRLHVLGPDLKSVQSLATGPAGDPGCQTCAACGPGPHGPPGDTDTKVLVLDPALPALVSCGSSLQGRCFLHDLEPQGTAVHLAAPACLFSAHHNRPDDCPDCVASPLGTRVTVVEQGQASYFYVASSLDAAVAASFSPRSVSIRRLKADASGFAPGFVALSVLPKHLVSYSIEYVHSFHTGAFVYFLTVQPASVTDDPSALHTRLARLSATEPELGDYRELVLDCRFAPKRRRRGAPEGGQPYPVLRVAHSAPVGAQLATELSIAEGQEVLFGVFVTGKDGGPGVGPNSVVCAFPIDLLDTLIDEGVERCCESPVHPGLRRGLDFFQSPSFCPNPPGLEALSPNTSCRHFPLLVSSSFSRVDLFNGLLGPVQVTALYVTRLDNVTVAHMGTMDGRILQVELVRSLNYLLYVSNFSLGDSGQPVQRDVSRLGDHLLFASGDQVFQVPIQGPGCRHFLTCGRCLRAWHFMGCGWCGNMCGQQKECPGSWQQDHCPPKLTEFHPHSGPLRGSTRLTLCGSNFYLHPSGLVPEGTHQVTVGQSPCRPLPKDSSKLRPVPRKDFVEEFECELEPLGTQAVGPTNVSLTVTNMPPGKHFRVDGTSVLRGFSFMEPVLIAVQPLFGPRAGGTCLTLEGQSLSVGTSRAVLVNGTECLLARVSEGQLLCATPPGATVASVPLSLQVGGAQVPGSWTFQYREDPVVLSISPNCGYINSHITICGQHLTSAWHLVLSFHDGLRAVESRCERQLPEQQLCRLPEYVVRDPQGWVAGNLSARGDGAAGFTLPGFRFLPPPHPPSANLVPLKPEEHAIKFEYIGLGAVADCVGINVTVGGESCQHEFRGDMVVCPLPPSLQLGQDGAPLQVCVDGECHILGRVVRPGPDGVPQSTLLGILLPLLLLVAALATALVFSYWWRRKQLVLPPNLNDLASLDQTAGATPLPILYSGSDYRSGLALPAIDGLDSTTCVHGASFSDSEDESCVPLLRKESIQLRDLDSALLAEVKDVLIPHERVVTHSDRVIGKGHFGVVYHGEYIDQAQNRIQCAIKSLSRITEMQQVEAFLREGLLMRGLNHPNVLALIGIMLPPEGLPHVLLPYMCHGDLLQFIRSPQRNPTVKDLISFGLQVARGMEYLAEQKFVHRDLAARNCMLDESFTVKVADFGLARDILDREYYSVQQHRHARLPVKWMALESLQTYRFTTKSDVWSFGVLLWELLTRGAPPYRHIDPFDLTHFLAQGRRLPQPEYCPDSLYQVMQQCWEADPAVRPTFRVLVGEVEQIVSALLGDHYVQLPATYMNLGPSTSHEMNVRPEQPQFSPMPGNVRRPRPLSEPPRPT
# assay summary: RON (human) AlphaScreen kinase assay, Km of ATP
# Assay type: biochemical
# condition parameters: AlphaScreen, Km of ATP; read-out: RON biochemical IC50
pIC50: −log10 of the molar value.

Field: example entries. Status: answers known.
[[record]]
molecule = "C[C@@H](Oc1c(N)ncc2c(-c3ccc4cc[nH]c4c3)coc12)c1c(Cl)ccc(F)c1Cl [Example 129]"
result = "5.30 to 6.30"

[[record]]
molecule = "C[C@@H](Oc1c(N)ncc2c(-c3csc(C(=O)N4CCN(C)CC4)c3)coc12)c1c(Cl)ccc(F)c1Cl [Example 316]"
result = "> 6.30"

[[record]]
molecule = "COc1cc(OC)cc(-c2coc3c(O[C@H](C)c4c(Cl)ccc(F)c4Cl)c(N)ncc23)c1 [Example 81]"
result = "5.30 to 6.30"

[[record]]
molecule = "CC(Oc1c(N)ncc2c(-c3cnn(C4CCNCC4)c3)coc12)c1cccc(-c2ccc[nH]2)c1 (stereo not drawn) [Example 445]"
result = "5.30 to 6.30"

[[record]]
molecule = "C[C@@H](Oc1c(N)ncc2c(C3=CCN(C(=O)c4ncc[nH]4)CC3)coc12)c1c(Cl)ccc(F)c1Cl [Example 232]"
result = "5.30 to 6.30"

[[record]]
molecule = "C[C@@H](Oc1c(N)ncc2c(-c3ccc(C(=O)N4CCC(O)C4)cc3)coc12)c1c(Cl)ccc(F)c1Cl (stereo partly drawn) [Example 299]"
result = "5.30 to 6.30"

[[record]]
molecule = "C[C@@H](Oc1c(N)ncc2c(C3=CCN(C(=O)OC4CCCC4)CC3)coc12)c1c(Cl)ccc(F)c1Cl [Example 54]"
result = "5.30 to 6.30"

[[record]]
molecule = "C[C@@H](Oc1c(N)ncc2c(-c3csc(CN(C)C)c3)coc12)c1c(Cl)ccc(F)c1Cl [Example 303]"
result = "> 6.30"

[[record]]
molecule = "C[C@@H](Oc1c(N)ncc2c(-c3ccc(C(=O)O)cc3)coc12)c1c(Cl)ccc(F)c1Cl [Example 65]"
result = "5.30 to 6.30"

[[record]]
molecule = "C[C@@H](Oc1c(N)ncc2c(C(=O)NC(C)(C)C)coc12)c1c(Cl)ccc(F)c1Cl [Example 184]"
result = "4.70 to 5.30"


Problem: Checklist item: pIC50 tested on RON (human) (Homo sapiens, UniProt Q04912), entry C[C@@H](Oc1c(N)ncc2c(C3=CCN(C(=O)[C@@H]4C[C@@H](F)CN4)CC3)coc12)c1c(Cl)ccc(F)c1Cl [Example 235] , value?
Solution: > 6.30

Problem: Checklist item: pIC50 tested on RON (human) (Homo sapiens, UniProt Q04912), entry C[C@@H](Oc1c(N)ncc2c(C3=CCN(C4CCC4)CC3)coc12)c1c(Cl)ccc(F)c1Cl [Example 44] , value?
Solution: > 6.30

Problem: Checklist item: pIC50 tested on RON (human) (Homo sapiens, UniProt Q04912), entry C[C@@H](Oc1c(N)ncc2c(-c3ccnc4ccccc34)coc12)c1c(Cl)ccc(F)c1Cl [Example 92] , value?
Solution: 4.70 to 5.30

Problem: Checklist item: pIC50 tested on RON (human) (Homo sapiens, UniProt Q04912), entry CC(Cc1c(Cl)cccc1C(F)(F)F)Oc1c(N)ncc2c(-c3cnn(C4CCNCC4)c3)coc12 (stereo not drawn) [Example 440] , value?
Solution: 5.30 to 6.30

Problem: Checklist item: pIC50 tested on RON (human) (Homo sapiens, UniProt Q04912), entry COc1cccc(Cl)c1C(C)Oc1c(N)ncc2c(-c3cnn(C4CCNCC4)c3)coc12 (stereo not drawn) [Example 359] , value?
Solution: > 6.30
